Where these numbers come from: patent US8822517B2

- Target under test: histaminergic H1 receptor (Homo sapiens)
- Sequence (P35367 whole entry): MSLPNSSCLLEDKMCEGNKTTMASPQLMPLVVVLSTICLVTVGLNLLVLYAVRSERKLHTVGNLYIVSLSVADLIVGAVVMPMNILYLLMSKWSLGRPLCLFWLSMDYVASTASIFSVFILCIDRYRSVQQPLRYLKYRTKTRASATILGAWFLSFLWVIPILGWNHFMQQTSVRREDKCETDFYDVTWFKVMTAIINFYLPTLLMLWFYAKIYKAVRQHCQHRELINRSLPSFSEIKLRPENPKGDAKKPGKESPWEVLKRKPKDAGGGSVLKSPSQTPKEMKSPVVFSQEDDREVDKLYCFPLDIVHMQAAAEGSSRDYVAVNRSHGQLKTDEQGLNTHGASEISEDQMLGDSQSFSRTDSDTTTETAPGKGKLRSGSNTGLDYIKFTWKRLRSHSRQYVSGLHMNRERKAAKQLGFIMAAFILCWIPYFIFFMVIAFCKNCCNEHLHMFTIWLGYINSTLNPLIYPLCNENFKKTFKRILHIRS
- Experimental protocol: Cellular functional assay, histaminergic H1 receptor (agonism/antagonism)
- Assay type: cell-based
- Details: read-out: H1 -antag. [%]
Binary classification by inhibition at 1 µM, with 50% as an inclusive lower bound for class 1; all other cases are class 0.

O=S(=O)(NCCCCN1CCC(c2noc3cc(F)ccc23)CC1)c1ccc(Br)cc1 :: class 1
O=S(=O)(NCCCCN1CCC(c2noc3cc(F)ccc23)CC1)c1ccc2cc(Cl)ccc2c1 :: class 1
O=S(=O)(NCCCCN1CCN(c2noc3ccccc23)CC1)c1cc2ccc(Cl)cc2s1 :: class 1
Cc1c(S(=O)(=O)NCCCCN2CCN(c3noc4ccccc34)CC2)sc2ccc(F)cc12 :: class 0
Cc1c(S(=O)(=O)NCCCCN2CCC(c3noc4cc(F)ccc34)CC2)sc2ccc(F)cc12 :: class 1
O=S(=O)(NCCCCN1CCC(c2noc3cc(F)ccc23)CC1)c1csc2ccccc12 :: class 0

Does the molecule `O=c1[nH]c2ccc(S(=O)(=O)NCCCN3CCN(c4nsc5ccccc45)CC3)cc2o1` have recorded inhibition at 1 µM that is 50% or more? class 1

Exam item: decide whether the reported inhibition at 1 µM for `O=S(=O)(NCCCCN1CCN(c2nsc3ccccc23)CC1)c1ccc2cc(Cl)ccc2c1` is at least 50%. class 1

# bool: inhibition at 1 µM of `O=S(=O)(NCCCCN1CCN(c2nsc3ccccc23)CC1)c1csc2ccccc12` >= 50% class 1

Exam item: decide whether the reported inhibition at 1 µM for `O=S(=O)(NCCCCN1CCN(c2nsc3ccccc23)CC1)c1cc2ccccc2s1` is at least 50%. class 1

Say whether `O=S(=O)(NCCCN1CCC(c2noc3cc(F)ccc23)CC1)c1ccc2cc(Cl)ccc2c1` shows inhibition at 1 µM of 50% or more. class 1

Given the entry `O=S(=O)(NCCCCN1CCN(c2noc3ccccc23)CC1)c1ccc(-c2ccccc2)cc1` , answer whether its inhibition at 1 µM meets or surpasses 50%. class 0

Check if inhibition at 1 µM >= 50% (inclusive). Item: `Cc1cccc(S(=O)(=O)NCCCN2CCN(c3nsc4ccccc34)CC2)c1` class 1

Is the recorded value of inhibition at 1 µM equal to or greater than 50% for this molecule? `O=S(=O)(NCCCN1CCC(c2noc3cc(F)ccc23)CC1)c1ccc2cn[nH]c2c1` class 1

Does the molecule `Cc1c(S(=O)(=O)NCCCN2CCC(c3noc4cc(F)ccc34)CC2)sc2ccc(F)cc12` have recorded inhibition at 1 µM that is 50% or more? class 0

---

List of inhibition at 1 µM values.
- Target under test: serotoninergic 5-HT2A receptor (Homo sapiens)
- Sequence (P28223 whole entry): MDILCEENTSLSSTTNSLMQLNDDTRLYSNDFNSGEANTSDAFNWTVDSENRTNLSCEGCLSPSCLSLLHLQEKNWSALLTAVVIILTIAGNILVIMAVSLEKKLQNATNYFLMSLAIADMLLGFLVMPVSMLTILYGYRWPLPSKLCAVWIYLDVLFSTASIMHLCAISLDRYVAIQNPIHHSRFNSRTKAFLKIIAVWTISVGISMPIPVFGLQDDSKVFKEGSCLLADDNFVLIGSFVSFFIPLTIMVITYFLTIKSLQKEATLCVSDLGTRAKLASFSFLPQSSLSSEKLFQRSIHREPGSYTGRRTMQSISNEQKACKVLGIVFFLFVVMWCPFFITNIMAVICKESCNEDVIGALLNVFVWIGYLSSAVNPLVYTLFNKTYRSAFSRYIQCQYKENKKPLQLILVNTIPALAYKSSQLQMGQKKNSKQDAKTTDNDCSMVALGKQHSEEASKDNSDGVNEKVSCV
- Experimental protocol: Binding assay 5-HT2A (h), [3H]ketanserin, HEK-293 cells
- Design: expressed in transfected cells; host or cells: HEK-293 cells
- Details: read-out: 5-HT2A
Write the value in % as a bare number.

O=S(=O)(NCCCN1CCN(c2nsc3ccccc23)CC1)c1cccc2ccccc12 [Compound 5] :: 99
O=S(=O)(NCCCN1CCN(c2nsc3ccccc23)CC1)c1ccc2cn[nH]c2c1 [Compound 268] :: 102
O=S(=O)(NCCCCN1CCN(c2nsc3ccccc23)CC1)c1ccc2c(c1)OCO2 [Compound 245] :: 99
Cc1[nH]c2ccc(Cl)cc2c1C1=CCN(CCCCNS(=O)(=O)c2cccc(Cl)c2)CC1 [Compound 137] :: 47
O=S(=O)(NCCCCN1CCC(c2noc3cc(F)ccc23)CC1)c1ccc2cn[nH]c2c1 [Compound 319] :: 88
O=S(=O)(NCCCN1CCN(c2cccc3c2OCCO3)CC1)c1cccc(Br)c1 [Compound 413] :: 40
O=S(=O)(NCCCCN1CCC(c2noc3cc(F)ccc23)CC1)c1ccc(C(F)(F)F)cc1 [Compound 302] :: 95

From here, focus on the item given below.
Answer with reported inhibition at 1 µM of O=S(=O)(NCCCCN1CCN(c2noc3ccccc23)CC1)c1ccc(Cl)c(Cl)c1 [Compound 93] 90
